# System: NKL (IL-2 2.5 ng/mL);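 further: normalised to DMSO-only wells as negative and benzethonium chloride as positive control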
# testSummary: percent inhibition of viability; higher = more inhibition
# testSettings: 72 h; 10000 nM
measuredParameter: percent inhibition of viability (%)
// note: answer is a bare numeric in %

Study these solved cases before continuing.
- molecule: "O=C(Nc1ccncc1)C(=O)c1cn(Cc2ccc(Cl)cc2)c2ccccc12 [Indibulin] (max concentration tested 10000 nM)"
  percent inhibition of viability (%): 83.6
- molecule: "C[C@@H]1C[C@H]2O[C@@H]2/C=C\\C=C\\C(=O)Cc2c(Cl)c(O)cc(O)c2C(=O)O1 [Radicicol] (max concentration tested 10000 nM)"
  percent inhibition of viability (%): 81.6
- molecule: "CC1(C)CCC(CN2CCN(c3ccc(C(=O)NS(=O)(=O)c4ccc(NCC5CCOCC5)c([N+](=O)[O-])c4)c(Oc4cnc5[nH]ccc5c4)c3)CC2)=C(c2ccc(Cl)cc2)C1 [Venetoclax] (max concentration tested 10000 nM)"
  percent inhibition of viability (%): 85.8

Lab note: molecule Cc1cc(Nc2cc(CN3CCOCC3)c3nc(C)c(Cc4ccc(Cl)cc4F)n3n2)n[nH]1 [Gandotinib] (max concentration tested 10000 nM) tested on NKL (IL-2 2.5 ng/mL); recorded percent inhibition of viability was 71.9

Known value: NKL (IL-2 2.5 ng/mL) percent inhibition of viability of the molecule Cn1cnc2c(F)c(Nc3ccc(Br)cc3Cl)c(C(=O)NOCCO)cc21 [Selumetinib] (max concentration tested 10000 nM) equals 72.7

Query Cn1cc(C2=Nc3cc(NC(=O)C(N)C4CCCCC4)cc4c3C2=CNNC4=O)cn1 (configuration not stated) (max concentration tested 10000 nM) on NKL (IL-2 2.5 ng/mL); percent inhibition of viability returned: 82.7

Observed percent inhibition of viability, NKL (IL-2 2.5 ng/mL), OC[C@H]1O[C@@H](n2cnc3c2N=CNC[C@H]3O)C[C@@H]1O [Pentostatin] (max concentration tested 10000 nM) : -7.04

Lab note: molecule CC(C)C[C@@H](C(=O)N[C@H](C(=O)OC1CCCC1)c1ccccc1)[C@H](O)C(=O)NO [Tosedostat] (max concentration tested 10000 nM) tested on NKL (IL-2 2.5 ng/mL); recorded percent inhibition of viability was 77.3

Item: O=C(Nc1ccc2[nH]nc(-c3ccncc3)c2c1)[C@@H]1CCN(CC(=O)N2CCN(c3ccc(-c4ncccn4)cc3)CC2)C1 (max concentration tested 10000 nM) | System: NKL (IL-2 2.5 ng/mL) | percent inhibition of viability: 71.8

Form field percent inhibition of viability for item COc1cc2c(NC3CCN(C(C)C)CC3)nc(C3CCCCC3)nc2cc1OCCCN1CCCC1 [UNC0638] (max concentration tested 10000 nM) on NKL (IL-2 2.5 ng/mL): 103

So the reported percent inhibition of viability for COc1cc(O)c2c(c1)/C=C/C[C@H](O)[C@H](O)C(=O)/C=C\C[C@H](C)OC2=O [(5Z)-7-Oxozeaenol] (max concentration tested 10000 nM) , on NKL (IL-2 2.5 ng/mL), turned out to be 110

Entry O=C(O)CC1CC(c2ccccc2)=NO1 (configuration not stated) [VGX-1027] (max concentration tested 10000 nM) under NKL (IL-2 2.5 ng/mL) had percent inhibition of viability of 23.6

Measured on NKL (IL-2 2.5 ng/mL), COc1cc(F)c(F)c(Nc2ccc(I)cc2F)c1NS(=O)(=O)C1(C[C@H](O)CO)CC1 [Refametinib] (max concentration tested 10000 nM) has a documented percent inhibition of viability of 82.3

Case CN(C)c1nc(N(C)C)nc(N(C)C)n1 [Altretamine] (max concentration tested 10000 nM) , NKL (IL-2 2.5 ng/mL), percent inhibition of viability recorded as 1.87

Here COC(=O)C[C@](O)(CCCC(C)(C)O)C(=O)O[C@@H]1C(OC)=C[C@]23CCCN2CCc2cc4c(cc2[C@H]13)OCO4 [Omacetaxine] (max concentration tested 10000 nM) was tested on NKL (IL-2 2.5 ng/mL), and its percent inhibition of viability came to 108

Item: O=c1[nH]c(=O)n([C@H]2C[C@H](O)[C@@H](CO)O2)cc1F [Floxuridine] (max concentration tested 10000 nM) | System: NKL (IL-2 2.5 ng/mL) | percent inhibition of viability: 82.9

Observed percent inhibition of viability, NKL (IL-2 2.5 ng/mL), O=C(O)c1ccc(Nc2ncc3c(n2)-c2ccc(Cl)cc2C(c2c(F)cccc2F)=NC3)cc1 [MLN-8054] (max concentration tested 10000 nM) : 36.9
